molecular target: transfected human CB1 receptor (Homo sapiens, UniProt P21554)
Sequence (P21554 whole entry): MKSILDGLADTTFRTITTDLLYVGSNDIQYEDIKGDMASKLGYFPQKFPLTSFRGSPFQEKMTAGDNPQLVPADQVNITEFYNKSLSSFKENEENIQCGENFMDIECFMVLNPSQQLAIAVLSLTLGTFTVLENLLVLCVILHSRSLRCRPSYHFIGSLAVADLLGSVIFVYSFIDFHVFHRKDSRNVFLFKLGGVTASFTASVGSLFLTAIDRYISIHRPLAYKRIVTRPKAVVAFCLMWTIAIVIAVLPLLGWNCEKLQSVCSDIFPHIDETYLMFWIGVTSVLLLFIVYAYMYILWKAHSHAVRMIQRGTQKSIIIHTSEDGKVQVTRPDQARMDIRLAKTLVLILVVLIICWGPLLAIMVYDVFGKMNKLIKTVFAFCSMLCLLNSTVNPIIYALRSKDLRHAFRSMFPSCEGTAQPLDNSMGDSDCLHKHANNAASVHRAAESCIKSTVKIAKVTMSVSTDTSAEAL
Property Label: Ki

## Input // fetch Ki given entry O=C(NN1CCCCC1)C1=NN(c2ccc(Cl)cc2Cl)C(c2ccc(Cl)cc2)C1 (stereo not shown)
## Output < 25 nM

====

molecular target: transfected human CB2 receptor (Homo sapiens, UniProt P34972); construct: purchased Receptor Biology, Inc; experiment: In-vitro affinity to CB2 receptor, radioligand [3H]-CP55940; type: binding
Sequence (P34972 whole entry): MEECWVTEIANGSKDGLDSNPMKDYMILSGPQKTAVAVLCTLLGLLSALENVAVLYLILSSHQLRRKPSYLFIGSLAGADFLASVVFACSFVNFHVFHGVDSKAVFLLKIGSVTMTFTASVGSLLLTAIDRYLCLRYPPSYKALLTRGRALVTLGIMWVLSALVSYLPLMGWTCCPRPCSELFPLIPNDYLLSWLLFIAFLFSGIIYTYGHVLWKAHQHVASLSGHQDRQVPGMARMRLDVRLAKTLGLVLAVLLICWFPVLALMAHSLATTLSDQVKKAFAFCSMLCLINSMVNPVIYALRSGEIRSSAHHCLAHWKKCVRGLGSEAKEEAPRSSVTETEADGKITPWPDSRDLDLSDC
pKi: −log10 of the molar value.
Property Label: pKi

## Input Supply pKi value. Item: O=C(NN1CCCCC1)C1=NN(c2ccc(Cl)cc2Cl)C(c2ccc(Cl)cc2)C1 (stereo not shown) [Example 1]
## Output < 6.00

Ref: patent US20090149472A1
